# TGT: GDP-loaded K-Ras (1-169) G12D, C51S, C80L, C118S (Homo sapiens, UniProt P01116, C118S/C51S/C80L/G12D)
# Construct: GDP-loaded K-Ras (1-169) G12D, C51S, C80L, C118S
# ASSAY PROTOCOL: K-Ras G12D(GDP) cross-linking assay (conjugate formation, TOF mass spectrometry)
# Type: binding
# MEASUREMENT CONTEXT: Table 4; percent covalently modified K-Ras by MS; room temperature; typical compound conc. 2, 10, 25 μM, endpoints 1 and 24 h

{"ITEM SMILES": "Fc1ccccc1-c1c(Cl)cc2c(N3CCN(C4=NCCO4)CC3)ncnc2c1F", "G12D x-linking (%)": "+ (0 < x ≤ 20)"}
{"ITEM SMILES": "CCCN=C=NC1CCN(c2nc(=O)n(-c3c(C)ccnc3C(C)C)c3nc(-c4ccccc4F)c(F)cc23)CC1", "G12D x-linking (%)": "+ (0 < x ≤ 20)"}
{"ITEM SMILES": "Fc1ccccc1-c1c(Cl)cc2c(NCCNC3=NCCO3)ncnc2c1F", "G12D x-linking (%)": "+ (0 < x ≤ 20)"}

FYI, the data here is from patent US20230100838A1.
